Attribution: ChEMBL document CHEMBL1139681

Here the recorded IC50 is given for each entry.
# MEASURED ON: 11-beta-hydroxysteroid dehydrogenase 1 (Homo sapiens, UniProt P28845)
# Sequence (P28845 whole entry): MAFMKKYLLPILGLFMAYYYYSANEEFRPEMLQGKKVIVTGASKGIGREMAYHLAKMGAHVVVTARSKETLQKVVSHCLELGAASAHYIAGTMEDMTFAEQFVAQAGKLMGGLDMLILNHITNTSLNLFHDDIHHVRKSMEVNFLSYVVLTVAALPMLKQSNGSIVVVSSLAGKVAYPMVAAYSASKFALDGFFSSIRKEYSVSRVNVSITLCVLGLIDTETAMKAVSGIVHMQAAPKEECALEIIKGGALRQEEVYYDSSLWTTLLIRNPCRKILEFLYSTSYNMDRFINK
# EXPERIMENTAL PROTOCOL: Inhibition of human 11beta-HSD1
Write the answer as a number in nM, unit excluded.

Below: 5 compounds and their reported IC50.
Return IC50 (reported value) for this compound: O=C1C(Cc2ccccc2)CCN1[C@H]1C2CC3CC1C[C@](O)(C3)C2 (some centres undefined)
832

Return IC50 (reported value) for this compound: CC1(C)C(=O)N([C@H]2C3CC4CC2C[C@](c2nnn[nH]2)(C4)C3)CC1COc1ccc(C(F)(F)F)cn1 (some centres undefined)
310

Return IC50 (reported value) for this compound: O=C1C(Cc2ccccc2)CCN1C1C2CC3CC(C2)CC1C3 (centres undefined)
64

Return IC50 (reported value) for this compound: NC(=O)[C@]12CC3CC(C1)[C@@H](N1CCC(Cc4ccccc4)C1=O)C(C3)C2 (some centres undefined)
35

Return IC50 (reported value) for this compound: O=C1C(Cc2ccccc2)CCN1C1CCCCC1 (centres undefined)
107

More entries:
Return IC50 (reported value) for this compound: CC1(C)C(=O)N([C@H]2C3CC4CC2C[C@](C(N)=O)(C4)C3)CC1COc1ccc(-n2cncn2)cc1 (some centres undefined)
41

Return IC50 (reported value) for this compound: CC1(C)C(=O)N([C@H]2C3CC4CC2C[C@](C(N)=O)(C4)C3)CC1COc1ccc(-n2ccnc2)cc1 (some centres undefined)
76

Return IC50 (reported value) for this compound: CC1(C)C(=O)N([C@H]2C3CCCC2C[C@@H](C(N)=O)C3)CC1COc1ccc(C#N)cn1 (stereo in doubt; 32)
5

Return IC50 (reported value) for this compound: CC1(C)C(=O)N([C@H]2C3CCCC2C[C@@H](C(N)=O)C3)CC1COc1ccc(C#N)cn1 (stereo in doubt; 31)
7

====

# EXPERIMENTAL PROTOCOL: Stability in mouse liver microsomes after 30 min
# Assay type: ADME, Microsome
# SETTINGS: liver microsomes, read-out: Stability
READOUT LABEL: remaining at 0.5 h
Answer shape: numeric part, then the unit.

Below: 3 compounds and their reported remaining at 0.5 h.
Return remaining at 0.5 h (reported value) for this compound: CC1(C)C(=O)N(C23CCC(C(N)=O)(CC2)CC3)CC1COc1ccc(C#N)cn1 (configuration not stated)
91%

Return remaining at 0.5 h (reported value) for this compound: CC1(C)C(=O)N([C@H]2C3CC4CC2C[C@](C(N)=O)(C4)C3)CC1COc1ccc(-n2ccnc2)cc1 (some centres not stated)
28%

Return remaining at 0.5 h (reported value) for this compound: CC1(C)C(=O)N([C@H]2C3CCCC2C[C@@H](C(N)=O)C3)CC1COc1ccc(C#N)cn1 (stereo in doubt; 32)
92%

More entries:
Return remaining at 0.5 h (reported value) for this compound: CC1(C)C(=O)N([C@H]2C3CC4CC2C[C@](C(=N)N)(C4)C3)CC1COc1ccc(C(F)(F)F)cn1 (some centres not stated)
100%

Return remaining at 0.5 h (reported value) for this compound: CC1(C)C(=O)N([C@H]2C3CC4CC2C[C@](C(=N)NO)(C4)C3)CC1COc1ccc(C(F)(F)F)cn1 (some centres not stated)
67%

Return remaining at 0.5 h (reported value) for this compound: CC1(C)C(=O)N([C@H]2C3CC4CC2C[C@](C(N)=O)(C4)C3)CC1COc1ccc(C#N)cn1 (some centres not stated)
97%

Return remaining at 0.5 h (reported value) for this compound: CC1(C)C(=O)N([C@H]2C3CCCC2C[C@H](C(N)=O)C3)CC1COc1ccc(C#N)cn1 (some centres not stated)
12%
